Property: Imax; scope: individual compounds
biological target: Mu-type opioid receptor (Homo sapiens); experiment: Maximal percent inhibitory activity was determined in stimulating [35S]-GTP-gamma S binding mediated by the Opioid receptor mu 1 in chinese Hamster Ovary (CHO) cell membranes
Sequence (P35372 whole entry): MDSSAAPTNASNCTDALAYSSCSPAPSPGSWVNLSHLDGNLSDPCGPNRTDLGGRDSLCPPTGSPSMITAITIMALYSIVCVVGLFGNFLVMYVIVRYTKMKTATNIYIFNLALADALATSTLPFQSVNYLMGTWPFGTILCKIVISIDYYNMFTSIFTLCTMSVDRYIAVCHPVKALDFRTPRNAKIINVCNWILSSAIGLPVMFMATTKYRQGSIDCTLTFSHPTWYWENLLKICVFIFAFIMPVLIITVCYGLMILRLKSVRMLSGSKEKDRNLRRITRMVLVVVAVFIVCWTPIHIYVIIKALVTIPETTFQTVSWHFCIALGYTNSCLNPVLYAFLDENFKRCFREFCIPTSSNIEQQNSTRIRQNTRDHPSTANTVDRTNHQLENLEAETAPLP
Kindly provide the numeric value in % only, without the unit symbol.

Example results:
Q: Would you kindly share the measured Imax for `O=C(CCCCCCCCC(=O)Oc1ccc2c(c1)[C@@]13CCCC[C@H]1[C@@H](C2)N(CC1CCC1)CC3)Oc1ccc2c(c1)[C@@]13CCCC[C@H]1[C@@H](C2)N(CC1CCC1)CC3` ?
Result: 60

Q: May I ask what Imax has been recorded for `Oc1ccc2c(c1)[C@@]13CCCC[C@H]1[C@@H](C2)N(CC1CC1)CC3` ?
Result: 50

Q: Need Imax of `O=C(CCCCCCCCC(=O)Oc1ccc2c(c1)[C@@]13CCCC[C@H]1[C@@H](C2)N(CC1CC1)CC3)Oc1ccc2c(c1)[C@@]13CCCC[C@H]1[C@@H](C2)N(CC1CC1)CC3` , thanks.
Result: 100

Q: GET /values?readout=Imax&item= `O=C(CCCCCCCC(=O)Oc1ccc2c(c1)[C@@]13CCCC[C@H]1[C@@H](C2)N(CC1CCC1)CC3)Oc1ccc2c(c1)[C@@]13CCCC[C@H]1[C@@H](C2)N(CC1CCC1)CC3`
Result: 54

Q: For `O=C(/C=C/C(=O)Oc1ccc2c(c1)[C@@]13CCCC[C@H]1[C@@H](C2)N(CC1CCC1)CC3)Oc1ccc2c(c1)[C@@]13CCCC[C@H]1[C@@H](C2)N(CC1CCC1)CC3` , what is its reported Imax?
Result: 100

# context switch: different compound, same Imax
Q: Which value of Imax has been reported for `O=C(CCC(=O)Oc1ccc2c(c1)[C@@]13CCCC[C@H]1[C@@H](C2)N(CC1CC1)CC3)Oc1ccc2c(c1)[C@@]13CCCC[C@H]1[C@@H](C2)N(CC1CC1)CC3` in the records?
Result: 60
